Data provenance: PubChem BioAssay AID1578

- assay_info: NOD1 signaling inhibitors, primary screen, cell-based, luminescence, uHTS (AID 1578);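 note: HEK-293T reporter cells stimulated with the NOD1 agonist gamma-tri-DAP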
- condition_set: NOD1-driven NF-kB luciferase reporter cells, at 4 µM, active compounds read high
Screen size: about 290,000 compounds; about 3,000 (1%) were called active. Shown is part of a subset that was picked to be rich in actives.
recorded_metric: inhibition (%)
Reply with just the number (in %).

compound | inhibition (%)
CC12C(=O)N(Cc3ccco3)C(=O)C1C1c3ccccc3C2c2ccccc21 (stereo not drawn) | 28.8
Cc1ccc2nc(/C(C#N)=C\c3ccc([N+](=O)[O-])o3)[nH]c2c1 | 0.5
N#C/C(=C(/O)c1ccc([N+](=O)[O-])s1)c1nc2ccccc2[nH]1 | 71.6
Nc1nc(=S)[nH]c2c1C1(CCCCC1)Cc1ccccc1-2 | -16.2
CCOC(=O)NNC(=O)CCn1c2c(c3ccccc31)CCCC2 | 55.3
COc1ccccc1/C(O)=C(\C#N)c1nc2ccccc2[nH]1 | 5.5
CCCCN(C)C(=O)C1CCC(CNS(=O)(=O)c2ccc3c(c2)CC(C)N3C(C)=O)CC1 (stereo not drawn) | -1.6
N#C/C(=C(/O)c1ccc([N+](=O)[O-])cc1)c1nc2ccccc2[nH]1 | 3.7
CC(=O)OC(C(=O)NC1CCCCC1)c1ccccc1F (stereo not drawn) | -33.2
CC(=O)C1=C(C)NC(=O)NC1c1cccc([N+](=O)[O-])c1O (stereo not drawn) | -9.2

Inquiry: Given the compound `N#C/C(=C(\O)c1cc(Cl)sc1Cl)c1nc2ccccc2[nH]1` , what is its reported inhibition?
Reply text: 64.5

Inquiry: Any idea what inhibition was measured for `N#C/C(=C(/O)c1ccc(Cl)cc1)c1nc2ccccc2[nH]1` ?
Reply text: 3.5

Inquiry: Requested field: inhibition. Item: `COc1ccc(F)cc1S(=O)(=O)NCCN1CCOCC1`
Reply text: 15.5

###

- assay_info: NOD1 signaling inhibitors, primary screen, cell-based, luminescence, uHTS (AID 1578);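 note: HEK-293T reporter cells stimulated with the NOD1 agonist gamma-tri-DAP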
- condition_set: NOD1-driven NF-kB luciferase reporter cells, at 4 µM, active compounds read high
Among all 290,000 compounds or so, about 3,000 (1%) were called active. For the sample, actives were picked, then their nearest neighbours and some compounds at random.
Assign class by inhibition: not lower than -20% means rule met; lower than -20% means rule not met.

Record excerpt, results attached:
chemical_string | cat
O=[N+]([O-])c1cccc(-c2nc(-c3ccccc3)c(-c3cccs3)[nH]2)c1 | rule met
CN1C=CC=C/C1=C1\SC(=S)N(N)C1=O | rule not met
CCc1nnc(NC(=O)CC23CC4CC(CC(Br)(C4)C2)C3)s1 | rule met
Cc1ccc(N2CN=c3s/c(=C\c4ccccn4)c(=O)n3C2)cc1 | rule not met
CCOC(=O)c1c(C)[nH]c(C)c1C(=O)CSc1nc2ccccc2c(=O)n1-c1ccc(C)cc1 | rule not met

Inquiry: Reported inhibition reaches at least -20% for `Cc1cccc(N(Cc2ccccc2)C(=O)c2ccc(S(C)(=O)=O)cc2)c1` ?
Reply text: rule met

Inquiry: Record `CCc1ccc(N2CN=c3s/c(=C\c4ccccc4)c(=O)n3C2)cc1` ; criterion: inhibition no lower than -20%. Met?
Reply text: rule met

Inquiry: I'd appreciate it if you could say whether `O=[N+]([O-])c1cccc(-c2nc(-c3cccs3)c(-c3cccs3)[nH]2)c1` has inhibition at least equal to -20%.
Reply text: rule met

Inquiry: # bool: inhibition of `O=C(NC(=O)N1CCCCC1)c1ccccc1` >= -20%
Reply text: rule not met
